Sourced from ChEMBL document CHEMBL3137667

assay-context: human;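 also: malignant tumour confirmed by histopathology, value gives the count of indexed literature references reporting it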
Exercise: for every item that follows, state its recorded Hepatotoxicity (malignant tumour).
Give bare numbers.

These recorded examples may help you get a feel for the data.
compound: Cc1cccc(C)c1OCC(=O)N[C@@H](Cc1ccccc1)[C@@H](O)C[C@H](Cc1ccccc1)NC(=O)[C@H](C(C)C)N1CCCNC1=O
reading: 0

compound: CN(C)CC/C=C1/c2ccccc2Sc2ccc(Cl)cc21
reading: 0

compound: O=C(O)c1cccnc1Nc1cccc(C(F)(F)F)c1
reading: 0

compound: OCc1cc(C(O)CNCCCCCCOCCCCc2ccccc2)ccc1O (stereo not drawn)
reading: 0

compound: COc1cc([C@@H]2c3cc4c(cc3[C@@H](O[C@@H]3O[C@@H]5CO[C@@H](C)O[C@H]5[C@H](O)[C@H]3O)[C@H]3COC(=O)[C@H]23)OCO4)cc(OC)c1O [ETOPOSIDE]
reading: 0

# map each compound to its Hepatotoxicity (malignant tumour)
1. COc1cccc(C2(O)CCCCC2CN(C)C)c1 (stereo not drawn)
2. Cc1nnc2n1-c1ccc(Cl)cc1C(c1ccccc1)=NC2
3. COc1cc2nc(N3CCN(C(=O)C4COc5ccccc5O4)CC3)nc(N)c2cc1OC (stereo not drawn)
4. O=C1NC(=S)NC(=O)C1C(=O)Nc1ccccc1

[0, 0, 0, 0]
